These entries and their values trace back to the Human Domainome abundance scans (Beltran et al. 2025).

B1: POU domain, class 2, transcription factor 3, residues 186 to 260; numbered along this chain, Q9UKI9 (parent)
chain: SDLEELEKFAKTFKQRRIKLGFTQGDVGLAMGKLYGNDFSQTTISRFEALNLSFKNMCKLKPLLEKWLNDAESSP

variants of: B1; experiment: abundance fitness (aPCA) (normalised: wild type 0, dead -1); higher = more abundant; growth selection in yeast, the domain comes from the species named; details: Homo sapiens
endpoint-label: abundance fitness
Answers are plain numbers.

Illustrative cases are given below, each with its answer.
mutation: L68A
number: -0.114

mutation: K59E
number: 0.053

mutation: W67S
number: -0.741

Respectfully, I request abundance fitness for each entry included below.
1. L68S
2. L63C
3. A71S

Completion:
1. -0.285
2. -0.031
3. -0.059

Respectfully, I request abundance fitness for each entry included below.
1. K66F
2. W67N
3. M57L
4. G21D

Completion:
1: -0.248; 2: -0.909; 3: -0.021; 4: -0.373
